conditions: in sec-butanol, 323.2 K
readout label: solubility (mole fraction)

record_smiles=C=C(C)[C@@H]1CC[C@]2(CO)CC[C@]3(C)[C@H](CC[C@@H]4[C@@]5(C)CC[C@H](O)C(C)(C)[C@@H]5CC[C@]43C)[C@@H]12 measured=0.0012

* * *

details: in DMF, 308.2 K
readout label: solubility (mole fraction)

record_smiles=C=C(C)[C@@H]1CC[C@]2(CO)CC[C@]3(C)[C@H](CC[C@@H]4[C@@]5(C)CC[C@H](O)C(C)(C)[C@@H]5CC[C@]43C)[C@@H]12 readout_label="solubility (mole fraction)" measured=0.00334

* * *

settings: in acetonitrile, 303.2 K
readout label: solubility (mole fraction)

record_smiles=C=C(C)[C@@H]1CC[C@]2(CO)CC[C@]3(C)[C@H](CC[C@@H]4[C@@]5(C)CC[C@H](O)C(C)(C)[C@@H]5CC[C@]43C)[C@@H]12 measured=0.000697

* * *

details: in acetonitrile, 313.2 K
readout label: solubility (mole fraction)

record_smiles=C=C(C)[C@@H]1CC[C@]2(CO)CC[C@]3(C)[C@H](CC[C@@H]4[C@@]5(C)CC[C@H](O)C(C)(C)[C@@H]5CC[C@]43C)[C@@H]12 readout_label="solubility (mole fraction)" measured=0.00137

* * *

settings: in water, 293.2 K
readout label: solubility (mole fraction)

record_smiles=C=C(C)[C@@H]1CC[C@]2(CO)CC[C@]3(C)[C@H](CC[C@@H]4[C@@]5(C)CC[C@H](O)C(C)(C)[C@@H]5CC[C@]43C)[C@@H]12 readout_label="solubility (mole fraction)" measured=4e-06

* * *

conditions: in water, 328.2 K
readout label: solubility (mole fraction)

record_smiles=C=C(C)[C@@H]1CC[C@]2(CO)CC[C@]3(C)[C@H](CC[C@@H]4[C@@]5(C)CC[C@H](O)C(C)(C)[C@@H]5CC[C@]43C)[C@@H]12 measured=3.3e-05

* * *

conditions: in DMF, 328.2 K
readout label: solubility (mole fraction)

record_smiles=C=C(C)[C@@H]1CC[C@]2(CO)CC[C@]3(C)[C@H](CC[C@@H]4[C@@]5(C)CC[C@H](O)C(C)(C)[C@@H]5CC[C@]43C)[C@@H]12 measured=0.00518

* * *

conditions: in water, 303.2 K
readout label: solubility (mole fraction)

record_smiles=C=C(C)[C@@H]1CC[C@]2(CO)CC[C@]3(C)[C@H](CC[C@@H]4[C@@]5(C)CC[C@H](O)C(C)(C)[C@@H]5CC[C@]43C)[C@@H]12 readout_label="solubility (mole fraction)" measured=6e-06

* * *

conditions: in water, 313.2 K
readout label: solubility (mole fraction)

record_smiles=C=C(C)[C@@H]1CC[C@]2(CO)CC[C@]3(C)[C@H](CC[C@@H]4[C@@]5(C)CC[C@H](O)C(C)(C)[C@@H]5CC[C@]43C)[C@@H]12 measured=1.4e-05

* * *

details: in n-pentanol, 323.2 K
readout label: solubility (mole fraction)

record_smiles=C=C(C)[C@@H]1CC[C@]2(CO)CC[C@]3(C)[C@H](CC[C@@H]4[C@@]5(C)CC[C@H](O)C(C)(C)[C@@H]5CC[C@]43C)[C@@H]12 measured=0.00175
record_smiles=C[C@@H]1CC[C@@]2(OC1)O[C@H]1C[C@H]3[C@@H]4CC=C5C[C@@H](O)CC[C@]5(C)[C@H]4CC[C@]3(C)[C@H]1[C@@H]2C measured=0.0122

* * *

details: in sec-butanol, 318.2 K
readout label: solubility (mole fraction)

record_smiles=C=C(C)[C@@H]1CC[C@]2(CO)CC[C@]3(C)[C@H](CC[C@@H]4[C@@]5(C)CC[C@H](O)C(C)(C)[C@@H]5CC[C@]43C)[C@@H]12 measured=0.00108

* * *

conditions: in acetonitrile, 318.2 K
readout label: solubility (mole fraction)

record_smiles=C=C(C)[C@@H]1CC[C@]2(CO)CC[C@]3(C)[C@H](CC[C@@H]4[C@@]5(C)CC[C@H](O)C(C)(C)[C@@H]5CC[C@]43C)[C@@H]12 measured=0.00193

* * *

conditions: in n-dodecane, 318.2 K
readout label: solubility (mole fraction)

record_smiles=C=C(C)[C@@H]1CC[C@]2(CO)CC[C@]3(C)[C@H](CC[C@@H]4[C@@]5(C)CC[C@H](O)C(C)(C)[C@@H]5CC[C@]43C)[C@@H]12 readout_label="solubility (mole fraction)" measured=3e-05

* * *

conditions: in n-hexadecane, 323.2 K
readout label: solubility (mole fraction)

record_smiles=C=C(C)[C@@H]1CC[C@]2(CO)CC[C@]3(C)[C@H](CC[C@@H]4[C@@]5(C)CC[C@H](O)C(C)(C)[C@@H]5CC[C@]43C)[C@@H]12 measured=9.8e-05

* * *

conditions: in n-hexadecane, 308.2 K
readout label: solubility (mole fraction)

record_smiles=C=C(C)[C@@H]1CC[C@]2(CO)CC[C@]3(C)[C@H](CC[C@@H]4[C@@]5(C)CC[C@H](O)C(C)(C)[C@@H]5CC[C@]43C)[C@@H]12 readout_label="solubility (mole fraction)" measured=6.5e-05

* * *

conditions: in n-octanol, 313.2 K
readout label: solubility (mole fraction)

record_smiles=C=C(C)[C@@H]1CC[C@]2(CO)CC[C@]3(C)[C@H](CC[C@@H]4[C@@]5(C)CC[C@H](O)C(C)(C)[C@@H]5CC[C@]43C)[C@@H]12 measured=0.00209

* * *

Collected solubility (mole fraction) values appear next to each entry.
conditions: in n-pentanol, 308.2 K
readout label: solubility (mole fraction)

record_smiles=C=C(C)[C@@H]1CC[C@]2(CO)CC[C@]3(C)[C@H](CC[C@@H]4[C@@]5(C)CC[C@H](O)C(C)(C)[C@@H]5CC[C@]43C)[C@@H]12 measured=0.0012
record_smiles=C[C@@H]1CC[C@@]2(OC1)O[C@H]1C[C@H]3[C@@H]4CC=C5C[C@@H](O)CC[C@]5(C)[C@H]4CC[C@]3(C)[C@H]1[C@@H]2C measured=0.0075

* * *

conditions: in acetonitrile, 298.2 K
readout label: solubility (mole fraction)

record_smiles=C=C(C)[C@@H]1CC[C@]2(CO)CC[C@]3(C)[C@H](CC[C@@H]4[C@@]5(C)CC[C@H](O)C(C)(C)[C@@H]5CC[C@]43C)[C@@H]12 measured=0.000473

* * *

conditions: in n-nonanol, 298.2 K
readout label: solubility (mole fraction)

record_smiles=C=C(C)[C@@H]1CC[C@]2(CO)CC[C@]3(C)[C@H](CC[C@@H]4[C@@]5(C)CC[C@H](O)C(C)(C)[C@@H]5CC[C@]43C)[C@@H]12 measured=0.00234

* * *

settings: in sec-butanol, 298.2 K
readout label: solubility (mole fraction)

record_smiles=C=C(C)[C@@H]1CC[C@]2(CO)CC[C@]3(C)[C@H](CC[C@@H]4[C@@]5(C)CC[C@H](O)C(C)(C)[C@@H]5CC[C@]43C)[C@@H]12 readout_label="solubility (mole fraction)" measured=0.000728

* * *

details: in DMF, 318.2 K
readout label: solubility (mole fraction)

record_smiles=C=C(C)[C@@H]1CC[C@]2(CO)CC[C@]3(C)[C@H](CC[C@@H]4[C@@]5(C)CC[C@H](O)C(C)(C)[C@@H]5CC[C@]43C)[C@@H]12 measured=0.00426

* * *

conditions: in sec-butanol, 293.2 K
readout label: solubility (mole fraction)

record_smiles=C=C(C)[C@@H]1CC[C@]2(CO)CC[C@]3(C)[C@H](CC[C@@H]4[C@@]5(C)CC[C@H](O)C(C)(C)[C@@H]5CC[C@]43C)[C@@H]12 readout_label="solubility (mole fraction)" measured=0.000701

* * *

details: in n-pentanol, 328.2 K
solubility (mole fraction) values for the molecules below.
readout label: solubility (mole fraction)

record_smiles=C=C(C)[C@@H]1CC[C@]2(CO)CC[C@]3(C)[C@H](CC[C@@H]4[C@@]5(C)CC[C@H](O)C(C)(C)[C@@H]5CC[C@]43C)[C@@H]12 measured=0.00198
record_smiles=C[C@@H]1CC[C@@]2(OC1)O[C@H]1C[C@H]3[C@@H]4CC=C5C[C@@H](O)CC[C@]5(C)[C@H]4CC[C@]3(C)[C@H]1[C@@H]2C measured=0.0148

* * *

conditions: in DMF, 298.2 K
readout label: solubility (mole fraction)

record_smiles=C=C(C)[C@@H]1CC[C@]2(CO)CC[C@]3(C)[C@H](CC[C@@H]4[C@@]5(C)CC[C@H](O)C(C)(C)[C@@H]5CC[C@]43C)[C@@H]12 readout_label="solubility (mole fraction)" measured=0.00244

* * *

conditions: in NMP, 313.2 K
readout label: solubility (mole fraction)

record_smiles=C=C(C)[C@@H]1CC[C@]2(CO)CC[C@]3(C)[C@H](CC[C@@H]4[C@@]5(C)CC[C@H](O)C(C)(C)[C@@H]5CC[C@]43C)[C@@H]12 readout_label="solubility (mole fraction)" measured=0.00635

* * *

details: in n-dodecane, 328.2 K
readout label: solubility (mole fraction)

record_smiles=C=C(C)[C@@H]1CC[C@]2(CO)CC[C@]3(C)[C@H](CC[C@@H]4[C@@]5(C)CC[C@H](O)C(C)(C)[C@@H]5CC[C@]43C)[C@@H]12 measured=4.5e-05
